Reference source for all entries: patent US20220081422A1

- System: MOLM-13 cells
- protocolDescription: MOLM-13 cellular assay (CellTiter-Glo cell viability)
- Assay type: cell-based
- testContext: Homo sapiens, MOLM-13, 72 h, 72 hours exposure, cell viability by CellTiter-Glo
experimentalReadout: IC50

INSERT INTO assay_data (compound, readoutvalue) VALUES
  ('CCn1c(CO)nn(-c2ccc3c(c2)C(C(C)C)CN(c2c(F)cccc2Cl)C3=O)c1=O (racemic) [Example 13]', '7.2 nM'),
  ('CCn1c(CO)nn(-c2ccc3c(c2)C(C(C)C(F)(F)F)CN(c2c(F)cccc2Cl)C3=O)c1=O (stereo not drawn) [Example 75]', '16.1 nM'),
  ('CCn1c(CO)nn(-c2cc3c(cc2F)C(=O)N(c2c(F)cccc2Cl)CN3[C@@H](C)C2CCCCC2)c1=O [Example 17]', '< 1.69 nM'),
  ('CCn1c(CO)nn(-c2cc3c(cc2F)C(=O)N(c2c(F)cncc2C#N)CN3C(C)C)c1=O [Example 27]', '48.1 nM'),
  ('C=C(C)C1CN(c2c(C)ccnc2Cl)C(=O)c2cc(F)c(-n3nc(CO)n(CC)c3=O)cc21 (racemic) [Example 45]', '6.98 nM'),
  ('CCn1c(CO)nn(-c2nc3c(cc2F)C(=O)N(c2c(F)cccc2Cl)CN3[C@@H](C)C(F)(F)F)c1=O [Example 8]', '1.7 nM'),
  ('CCC[C@H](C)N1CN(c2c(F)cccc2Cl)C(=O)c2cc(F)c(-n3nc(CO)n(CC)c3=O)nc21 [Example 24]', '< 1.69 nM'),
  ('CCn1c(CO)nn(-c2ccc3c(c2)C(C(C)C)CN(c2ccccc2F)C3=O)c1=O (racemic) [Example 12]', '58 nM'),
  ('CC[C@H](C)N1CN(c2c(F)cccc2Cl)C(=O)c2cc(F)c(-n3nc(CO)n(CC)c3=O)nc21 [Example 31]', '0.962 nM'),
  ('CCn1c(CO)nn(-c2cc3c(cc2F)C(=O)N(c2c(F)cccc2Cl)C(C)N3C(C)C)c1=O (stereo not drawn) [Example 2]', '8.4 nM'),
  ('CCn1c(CO)nn(-c2cc3c(cc2F)C(=O)N(c2c(F)cccc2Cl)CN3C2CCC2)c1=O [Example 19]', '2.57 nM'),
  ('CCn1c(CO)nn(-c2cc3c(cc2F)C(=O)N(c2c(F)cncc2Cl)CN3C(C)C)c1=O [Example 29]', '27.3 nM'),
  ('CCn1c(CO)nn(-c2cc3c(cc2F)C(=O)N(c2nc(OC)ccc2Cl)CN3C(C)C)c1=O [Example 30]', '3.39 nM'),
  ('CCn1c(CO)nn(-c2cc3c(cc2F)C(=O)N(c2c(F)cccc2Cl)CN3CC(C)C)c1=O [Example 18]', '3.99 nM'),
  ('CC[C@H](C)[C@H]1CN(c2c(F)cccc2Cl)C(=O)c2cc(F)c(-n3nc(CO)n(CC)c3=O)cc21 (relative stereo) [Example 71]', '4.3 nM');
